# Assay procedure: Volume of distribution at steady state in mouse plasma
# Format: ADME, organism-based
# Measurement parameters: read-out: Vdss
# reported Vd; entries follow

Molecule | Vd
O=C(CCc1ccc(-c2ccc(O)cc2)cc1)NC1=C(C(=O)O)CC(c2cccnc2F)CC1 (stereo not given) | 0.42 L/kg
O=C(CCc1ccc(-c2ccc(O)cc2)cc1)Nc1ccccc1C(=O)O | 0.78 L/kg
O=C(CCc1nc(-c2ccc(O)cn2)no1)NC1=C(C(=O)O)CCCC1 | 0.21 L/kg
NC(Cc1nc(-c2ccc(F)cn2)no1)C(=O)NC1=C(C(=O)O)CCCC1 (stereo not given) | 1.4 L/kg
C[C@H]1CC(NC(=O)CCc2nc(-c3ccc(O)cn3)no2)=C(C(=O)O)C[C@H]1c1cccc(F)c1 | 0.76 L/kg

* * *

# Study target: Hydroxycarboxylic acid receptor 2 (Homo sapiens)
# Assay procedure: Displacement of [3H]niacin from human niacin receptor expressed in CHO-KI cells in presence of human serum
# Format: cell-based
Experimental readout: fold change (FC)

Compound | Study target | Censor symbol | Result number
O=C(CCc1nc(-c2ccc(F)cn2)no1)NC1=C(C(=O)O)CC(c2cc(F)cc(F)c2)CC1 (stereo not drawn) | Hydroxycarboxylic acid receptor 2 (Homo sapiens) | = | 30
Cn1cc(C2CCC(NC(=O)CCc3ccc4cc(O)ccc4c3)=C(C(=O)O)C2)cn1 (stereo not drawn) | Hydroxycarboxylic acid receptor 2 (Homo sapiens) | > | 400
O=C(CCc1ccc2cc(O)ccc2c1)NC1=C(C(=O)O)CC(c2ccc(F)nc2)CC1 (stereo not drawn) | Hydroxycarboxylic acid receptor 2 (Homo sapiens) | = | 90

* * *

# reported bioavailability; entries follow
# Assay procedure: Oral bioavailability in mouse plasma
# Type: ADME, organism-based

Compound | bioavailability
O=C(CCc1ccc(-c2ccc(O)cc2)cc1)Nc1ccccc1C(=O)O | 35%
O=C(CCc1nc(-c2ccc(O)cn2)no1)NC1=C(C(=O)O)CCCC1 | 13%
O=C(CCc1ccc(-c2ccc(O)cc2)cc1)NC1=C(C(=O)O)CC(c2cccnc2F)CC1 (stereo not given) | 12%
C[C@H]1CC(NC(=O)CCc2nc(-c3ccc(O)cn3)no2)=C(C(=O)O)C[C@H]1c1cccc(F)c1 | 2%
NC(Cc1nc(-c2ccc(F)cn2)no1)C(=O)NC1=C(C(=O)O)CCCC1 (stereo not given) | 87%

* * *

# Assay procedure: Cmax in mouse plasma
# Type: ADME, organism-based
Please use YES for Cmax under 4 µM and NO for everything else, ties included.

Molecule | Category
NC(Cc1nc(-c2ccc(F)cn2)no1)C(=O)NC1=C(C(=O)O)CCCC1 (stereo not given) | NO
O=C(CCc1ccc(-c2ccc(O)cc2)cc1)NC1=C(C(=O)O)CC(c2cccnc2F)CC1 (stereo not given) | YES
C[C@H]1CC(NC(=O)CCc2nc(-c3ccc(O)cn3)no2)=C(C(=O)O)C[C@H]1c1cccc(F)c1 | YES

* * *

# Assay procedure: Oral bioavailability in rat plasma
# Type: ADME, organism-based

Molecule | Uom | bioavailability
NC(Cc1nc(-c2ccc(F)cn2)no1)C(=O)NC1=C(C(=O)O)CC(c2cc(F)cc(F)c2)CC1 (stereo unspecified) | % | 44
